Cited source for all entries: patent US10745408B2

- Experimental Protocol: S-(1) pharmacokinetics in mouse, plasma and brain levels after single IV dose
- Assay type: in vivo, CD-1 mice
- Applied Conditions: CD-1, mouse; Brain; single IV 20 mg/kg

# Compound, Readout Unit, AUC(0-t)
data = [
    ("C=C[C@H]1O[C@H]2C[C@H]3OC[C@@]3(OC(C)=O)[C@H]3[C@H](OC(=O)c4ccccc4)[C@]4(C(C)(C)O)CC(OC(=O)[C@H](O)C(CC(C)C)NC(=O)OC(C)(C)C)C(C)=C4[C@H](OC(C)=O)[C@H](O1)[C@]23C (stereo partly drawn) [S-(1)]", "ng·h/mL", 65000),
]
